B1: TPR 5TU (parent)
chain: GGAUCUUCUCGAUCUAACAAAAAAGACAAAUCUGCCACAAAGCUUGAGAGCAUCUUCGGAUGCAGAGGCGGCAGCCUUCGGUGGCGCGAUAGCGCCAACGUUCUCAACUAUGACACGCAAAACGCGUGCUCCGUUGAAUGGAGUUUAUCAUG

variants of: B1; test: polymerase ribozyme fitness, log enrichment relative to wild type (log ratio); higher = more active; in vitro selection for triplet polymerase activity
This sample holds only a part of the variants without activity.
Outcome label depends on polymerase ribozyme fitness (log ratio) relative to -3: at/above gives Met, below gives Not met.

Solved cases (3 shown):
Variant Designation	Discrete Label
A21U G42C U44A U53A U55A C87U	Not met
U102G A121C	Met
A3C U7G C87U C93G A98G G100U A120C U148A U151G	Not met

Does polymerase ribozyme fitness (log ratio) meet or surpass -3 for A49C U61G C99G G124A ?
Not met

Does polymerase ribozyme fitness (log ratio) meet or surpass -3 for A39C C118U A120U ?
Met

Does polymerase ribozyme fitness (log ratio) meet or surpass -3 for A23C C87U ?
Not met

Does polymerase ribozyme fitness (log ratio) meet or surpass -3 for A52G C85U G86U C118G U144C C149G ?
Not met

Does polymerase ribozyme fitness (log ratio) meet or surpass -3 for G83A A97U A98U A138U ?
Not met

Does polymerase ribozyme fitness (log ratio) meet or surpass -3 for A30G A39C U55G U82C G136U ?
Not met

Does polymerase ribozyme fitness (log ratio) meet or surpass -3 for A40G C87U C103G ?
Not met

Does polymerase ribozyme fitness (log ratio) meet or surpass -3 for G50A C54U C57A G84U C103G G124C G133U G141C ?
Not met

Does polymerase ribozyme fitness (log ratio) meet or surpass -3 for G11A U15G A107G G141C U144C U145A G152A ?
Not met

Does polymerase ribozyme fitness (log ratio) meet or surpass -3 for A41C C87U ?
Met

Does polymerase ribozyme fitness (log ratio) meet or surpass -3 for U6C A19C A26G C85G C108A ?
Not met

Does polymerase ribozyme fitness (log ratio) meet or surpass -3 for A3C G58C C95G C129A A142C ?
Not met

Does polymerase ribozyme fitness (log ratio) meet or surpass -3 for A20G A30U G83A A110C U148C ?
Not met

Does polymerase ribozyme fitness (log ratio) meet or surpass -3 for A30G C54U G80U A91C C103U ?
Not met

Does polymerase ribozyme fitness (log ratio) meet or surpass -3 for G86U A89G U145A ?
Not met

Does polymerase ribozyme fitness (log ratio) meet or surpass -3 for A37G C54U U55A G86A A89U U109G A138G ?
Not met
